- testSystem: human GRα protein (Homo sapiens, UniProt P04150)
- Construct: made in house; host or cells: insect cells infected with baculovirus; cytoplasm fraction used
- Sequence (P04150 whole entry): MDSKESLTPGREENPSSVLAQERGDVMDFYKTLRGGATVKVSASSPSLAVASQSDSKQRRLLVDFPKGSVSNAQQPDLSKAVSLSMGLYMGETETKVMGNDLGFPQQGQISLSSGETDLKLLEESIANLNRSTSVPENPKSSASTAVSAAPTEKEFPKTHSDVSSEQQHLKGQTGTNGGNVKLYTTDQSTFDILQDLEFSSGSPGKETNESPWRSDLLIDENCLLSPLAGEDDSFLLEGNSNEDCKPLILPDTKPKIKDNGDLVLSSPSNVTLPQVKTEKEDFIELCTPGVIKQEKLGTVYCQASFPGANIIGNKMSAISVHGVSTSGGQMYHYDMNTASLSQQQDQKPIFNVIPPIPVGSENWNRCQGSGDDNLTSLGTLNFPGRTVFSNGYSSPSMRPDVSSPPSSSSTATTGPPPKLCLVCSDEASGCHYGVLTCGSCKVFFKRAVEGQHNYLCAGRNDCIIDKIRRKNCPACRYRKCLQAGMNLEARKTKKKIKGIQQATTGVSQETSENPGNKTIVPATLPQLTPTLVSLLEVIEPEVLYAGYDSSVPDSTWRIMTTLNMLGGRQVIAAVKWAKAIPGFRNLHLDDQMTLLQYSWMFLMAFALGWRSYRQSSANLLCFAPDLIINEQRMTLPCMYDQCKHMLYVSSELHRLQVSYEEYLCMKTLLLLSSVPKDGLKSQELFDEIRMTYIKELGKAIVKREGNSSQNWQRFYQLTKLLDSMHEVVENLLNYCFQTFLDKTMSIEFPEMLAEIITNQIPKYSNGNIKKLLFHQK
- assay: Binding inhibitory assay (displacement of 3H-dexamethasone from the cytoplasm fraction of baculovirus-infected insect cells)
- assaySetup: 100 nM test compound; 3H-Dex; NSB with 10 μM dexamethasone; read-out: Binding Inhibitory ratio (%) of 100 nM of test compound
assayReadout: inhibition at 0.1 µM (%)

These solved cases illustrate the format of a correct answer.
molecule	endpointValue
O=[N+]([O-])c1ccc2c(C(O)(CN3CCC(S(=O)(=O)c4ccccc4)CC3)C(F)(F)F)cn(Cc3ccccc3)c2c1 (centres unmarked) [Example 184]	97
O=[N+]([O-])c1ccc2c(C(O)(CNCC3CCCO3)C(F)(F)F)cn(Cc3ccccc3)c2c1 (centres unmarked) [Example 140]	80
O=[N+]([O-])c1ccc2c(C(O)(CN3CCC(O)CC3)C(F)(F)F)cn(Cc3ccccc3)c2c1 (centres unmarked) [Example 78]	81
CCOC(=O)CCCCNCC(O)(c1cn(Cc2ccccc2)c2cc([N+](=O)[O-])ccc12)C(F)(F)F (centres unmarked) [Example 173]	88
O=C(O)c1ccc(OC2CCN(CC(O)(c3cn(Cc4ccccc4)c4cc([N+](=O)[O-])ccc34)C(F)(F)F)CC2)cc1 (centres unmarked) [Example 178]	95

(1) O=[N+]([O-])c1ccc2c(C(O)(CN3CCCC(O)C3)C(F)(F)F)cn(Cc3ccccc3)c2c1 (centres unmarked) [Example 165]
(2) O=[N+]([O-])c1ccc2c(C(O)(CNCCOc3ccccc3)C(F)(F)F)cn(Cc3ccccc3)c2c1 (centres unmarked) [Example 133]
*Q* Please tell me which of the two, 1 or 2 , has the higher reported inhibition at 0.1 µM value. Please respond with the label that marks your chosen entry.
*A* 1
